TEST SYSTEM: recombinant reconstituted β2 adrenergic receptor
METHOD: ELISA of clones panned from the Gs library, reconstituted β2 adrenergic receptor
Where no end group is shown, it is not given here.
MEASURED QUANTITY: ELISA
The answer should be written as a number, with no unit following it.

Q: What value of ELISA has been reported for the following binder? QGEHLRQLQLQ (peptide, not shown: small tags and cut ends, not fully specified) [AG2 QGEHLRQLQLQ]
Result: 0.33

Q: Check DRMHLWRFGLL (peptide, not shown: small tags and cut ends, not fully specified) [AG11 DRMHLWRFGLL] too.
Result: 0.192

Q: Check QRLHLRGYEFL (peptide, not shown: small tags and cut ends, not fully specified) [AG13 QRLHLRGYEFL] too.
Result: 0.054

Q: Check QRVHLRQDELL (peptide, not shown: small tags and cut ends, not fully specified) [BAR2 QRVHLRQDELL] too.
Result: 0.197

Q: Check QRMPLRLFEFL (peptide, not shown: small tags and cut ends, not fully specified) [AG3 QRMPLRLFEFL] too.
Result: 0.217

Q: Check QRIHRRPFKFF (peptide, not shown: small tags and cut ends, not fully specified) [BAR1 QRIHRRPFKFF] too.
Result: 0.218

Q: Check QRLRLGPDELF (peptide, not shown: small tags and cut ends, not fully specified) [AG4 QRLRLGPDELF] too.
Result: 0.291
